- TEST_CONTEXT: human gut metagenome, 24 h, 2 µM; also: call rule not given here
MEASURE_NAME: Bacterial Biotransformation

MOLECULE	MEASURE_NAME	VALUE_MEASURED
CC(C)c1nc(N(C)S(C)(=O)=O)nc(-c2ccc(F)cc2)c1/C=C/[C@@H](O)C[C@@H](O)CC(=O)[O-].CC(C)c1nc(N(C)S(C)(=O)=O)nc(-c2ccc(F)cc2)c1/C=C/[C@@H](O)C[C@@H](O)CC(=O)[O-].[Ca+2] [ROSUVASTATIN CALCIUM]	Bacterial Biotransformation	Compound NOT metabolized
CCc1cccc2c3c([nH]c12)C(CC)(CC(=O)O)OCC3 (stereo not drawn) [ETODOLAC]	Bacterial Biotransformation	Compound NOT metabolized

====

- MEASUREMENT_DESCRIPTION: The drug is tested on Z-018 corresponding to pig gut metagenome with ENA study accession number: PRJEB37062 and ENA sample accession number: ERS12561817 for biotransformation under anaerobic condition. The drug concentrations were measured over 9 timepoints collected between 0 and 24 hours of incubation by liquid-chromatography-coupled mass spectrometry (LC–MS)
- TEST_CONTEXT: 2 µM
MEASURE_NAME: Bacterial Biotransformation

Check out these entries, answers already filled in.
MOLECULE	VALUE_MEASURED
Nc1nc(NC2CC2)c2ncn([C@H]3C=C[C@@H](CO)C3)c2n1.Nc1nc(NC2CC2)c2ncn([C@H]3C=C[C@@H](CO)C3)c2n1.O=S(=O)(O)O [ABACAVIR SULFATE]	Compound NOT metabolized
O=C1CC2(CCCC2)CC(=O)N1CCCCN1CCN(c2ncccn2)CC1	Compound NOT metabolized
CN(CCOc1ccc(CC2SC(=O)NC2=O)cc1)c1ccccn1.O=C(O)/C=C\C(=O)O (configuration not stated) [ROSIGLITAZONE MALEATE]	Compound NOT metabolized
CC(=O)OCC(=O)[C@@]1(OC(C)=O)[C@@H](C)C[C@H]2[C@@H]3C[C@H](F)C4=CC(=O)C=C[C@]4(C)[C@@]3(F)[C@@H](O)C[C@@]21C [DIFLORASONE DIACETATE]	Compound metabolized
COC1=C(OC)C(=O)C(CCCCCCCCCCO)=C(C)C1=O	Compound metabolized
C[C@@H](c1ncncc1F)[C@](O)(Cn1cncn1)c1ccc(F)cc1F	Compound metabolized

Proceeding to the next molecule to report its Bacterial Biotransformation.
Req: I'd like to know its Bacterial Biotransformation. The molecule in question is CCCC(C)(COC(N)=O)COC(=O)NC(C)C (configuration not stated)
Resp: Compound metabolized

====

- MEASUREMENT_DESCRIPTION: The drug is tested on WLS-240 corresponding to human gut metagenome with ENA study accession number: PRJEB37062 and ENA sample accession number: ERS12561773 for biotransformation under anaerobic condition. The drug concentrations were measured over 9 timepoints collected between 0 and 24 hours of incubation by liquid-chromatography-coupled mass spectrometry (LC–MS)
- TEST_CONTEXT: 2 µM
MEASURE_NAME: Bacterial Biotransformation

Example compounds with recorded Bacterial Biotransformation:
COMPOUND	Bacterial Biotransformation
CCN(C(C)=O)c1cccc(-c2ccnc3c(C#N)cnn23)c1 [ZALEPLON]	Compound metabolized
C#C[C@]1(OC(C)=O)CC[C@H]2[C@@H]3CCC4=C[C@@H](OC(C)=O)CC[C@@H]4[C@H]3CC[C@@]21C [ETHYNODIOL DIACETATE]	Compound metabolized
CN1[C@@H]2CC[C@H]1C[C@@H](OC(=O)c1c[nH]c3ccccc13)C2 [TROPISETRON]	Compound NOT metabolized
OC(c1cc(C(F)(F)F)nc2c(C(F)(F)F)cccc12)C1CCCCN1 (stereo not drawn) [MEFLOQUINE]	Compound metabolized
CC1Cc2ccccc2N1NC(=O)c1ccc(Cl)c(S(N)(=O)=O)c1 (stereo not drawn) [INDAPAMIDE]	Compound NOT metabolized

For each of the compounds below, state Bacterial Biotransformation.
1. CCCCCNC(=N)N/N=C/c1c[nH]c2ccc(OC)cc12.O=C(O)/C=C\C(=O)O [TEGASEROD MALEATE]
2. CCOc1cc(CC(=O)N[C@@H](CC(C)C)c2ccccc2N2CCCCC2)ccc1C(=O)O [REPAGLINIDE]
3. COc1ccnc(C[S+]([O-])c2nc3ccc(OC(F)F)cc3[nH]2)c1OC (stereo not drawn) [PANTOPRAZOLE]

Resp:
1. Compound NOT metabolized
2. Compound metabolized
3. Compound metabolized

====

- MEASUREMENT_DESCRIPTION: The drug is tested on Z-011 corresponding to mouse gut metagenome with ENA study accession number: PRJEB37062 and ENA sample accession number: ERS12561811 for biotransformation under anaerobic condition. The drug concentrations were measured over 9 timepoints collected between 0 and 24 hours of incubation by liquid-chromatography-coupled mass spectrometry (LC–MS)
- TEST_CONTEXT: 2 µM
MEASURE_NAME: Bacterial Biotransformation

COMPOUND	VALUE_MEASURED
COC1=C(OC)C(=O)C(CCCCCCCCCCO)=C(C)C1=O [IDEBENONE]	Compound metabolized
CCOc1ccc2nc(S(N)(=O)=O)sc2c1 [ETHOXZOLAMIDE]	Compound NOT metabolized
CC1=C(CC(=O)O)c2cc(F)ccc2/C1=C\c1ccc([S+](C)[O-])cc1 (centres undefined)	Compound NOT metabolized
CC(C)c1c(CN(C)C(C)Cc2ccccc2)n(C)n(-c2ccccc2)c1=O (centres undefined) [FAMPROFAZONE]	Compound metabolized
CC(C)c1nc(N(C)S(C)(=O)=O)nc(-c2ccc(F)cc2)c1/C=C/[C@@H](O)C[C@@H](O)CC(=O)[O-].CC(C)c1nc(N(C)S(C)(=O)=O)nc(-c2ccc(F)cc2)c1/C=C/[C@@H](O)C[C@@H](O)CC(=O)[O-].[Ca+2] [ROSUVASTATIN CALCIUM]	Compound NOT metabolized

Give Bacterial Biotransformation for all compounds that follow.
1. C#C[C@]1(OC(C)=O)CC[C@H]2[C@@H]3CCC4=CC(=O)CC[C@@H]4[C@H]3CC[C@@]21C [NORETHINDRONE ACETATE]
2. CCc1oc2ccccc2c1C(=O)c1cc(Br)c(O)c(Br)c1 [BENZBROMARONE]
3. O=C1CC2(CCCC2)CC(=O)N1CCCCN1CCN(c2ncccn2)CC1 [BUSPIRONE]
4. CCN(CC)CCOC(=O)C1(C2CCCCC2)CCCCC1 [DICYCLOMINE]

Resp:
1: Compound metabolized; 2: Compound metabolized; 3: Compound NOT metabolized; 4: Compound NOT metabolized

====

- TEST_CONTEXT: human gut metagenome, 24 h, 2 µM
MEASURE_NAME: Bacterial Biotransformation

Observe how each entry below is paired with its result.
MOLECULE	Bacterial Biotransformation
COc1ccc([C@@H]2Sc3ccccc3N(CCN(C)C)C(=O)[C@@H]2OC(C)=O)cc1	Compound metabolized
O=C(CCCN1CCC2(CC1)C(=O)NCN2c1ccccc1)c1ccc(F)cc1	Compound NOT metabolized
CCc1oc2ccccc2c1C(=O)c1cc(Br)c(O)c(Br)c1	Compound NOT metabolized
CC1Cc2ccccc2N1NC(=O)c1ccc(Cl)c(S(N)(=O)=O)c1 (centres undefined) [INDAPAMIDE]	Compound NOT metabolized
CC(=O)OCC(CCn1cnc2cnc(N)nc21)COC(C)=O	Compound metabolized

Give Bacterial Biotransformation for all molecules that follow.
1. CC(C)(C)NC[C@H](O)COc1nsnc1N1CCOCC1.O=C(O)/C=C\C(=O)O [TIMOLOL MALEATE]
2. CC12CC3CC(C)(C1)CC(N)(C3)C2 [MEMANTINE]
3. CCN1CCCC1CNC(=O)c1cc(S(=O)(=O)CC)c(N)cc1OC (centres undefined) [AMISULPRIDE]
4. Br.CN1CCC[C@@H]1Cc1c[nH]c2ccc(CCS(=O)(=O)c3ccccc3)cc12 [ELETRIPTAN HYDROBROMIDE]

Resp:
1: Compound NOT metabolized; 2: Compound NOT metabolized; 3: Compound NOT metabolized; 4: Compound NOT metabolized

====

- TEST_CONTEXT: human gut metagenome, 24 h, 2 µM
MEASURE_NAME: Bacterial Biotransformation

Below, each entry is followed by its recorded Bacterial Biotransformation result.
MOLECULE	VALUE_MEASURED
Clc1cccc(Cl)c1N=C1NCCN1 [CLONIDINE]	Compound NOT metabolized
COc1ccc([C@@H]2Sc3ccccc3N(CCN(C)C)C(=O)[C@@H]2OC(C)=O)cc1 [DILTIAZEM]	Compound metabolized
COc1ccccc1OCCNCC(O)COc1cccc2[nH]c3ccccc3c12 (stereo not drawn) [CARVEDILOL]	Compound NOT metabolized
C[C@@H](c1ncncc1F)[C@](O)(Cn1cncn1)c1ccc(F)cc1F [VORICONAZOLE]	Compound metabolized
CC(C)NCC(O)COc1ccc(CC(N)=O)cc1 (stereo not drawn) [ATENOLOL]	Compound NOT metabolized

// input: 2 molecules below; output: Bacterial Biotransformation for each
1. CCOc1cc(CC(=O)N[C@@H](CC(C)C)c2ccccc2N2CCCCC2)ccc1C(=O)O [REPAGLINIDE]
2. CC(C)(C)NCC(O)COc1cccc2c1CC(O)C(O)C2 (stereo not drawn) [NADOLOL]

Resp:
1: Compound metabolized; 2: Compound metabolized

Req: GET /values?readout=Bacterial Biotransformation&item= C[C@]12C=CC(=O)C=C1CC[C@@H]1[C@@H]2C(=O)C[C@@]2(C)[C@H]1CC[C@]2(O)C(=O)CO [PREDNISONE]
Resp: Compound metabolized
